Exercise: state measured IC50 for each of the compounds provided.
# tested_target: Histone deacetylase (HDAC1 and HDAC2) (Homo sapiens, UniProt Q13547+Q92769)
# measurement_description: Inhibitory activity against mixture of histone deacetylase 1 (HDAC1) and histone deacetylase 2 (HDAC2) from nuclear extraction of K562 erythroleukemia cells.
Kindly answer with a numeric value in nM, unit omitted.

Record CNC(=O)C(=O)CCCCCCC(=O)Nc1cccc(Oc2ccccc2)c1 : what is its IC50 with Histone deacetylase (HDAC1 and HDAC2) (Homo sapiens, UniProt Q13547+Q92769)?
1041

Can you handle CCNC(=O)C(=O)CCCCCCOc1ccc(-c2ccccc2)cc1 next?
4.9

Can you handle COC(=O)C(=O)CCCCCCCOc1ccc(-c2ccccc2)cc1 next?
0.109

Can you handle COC(=O)C(=O)CCCCCOc1ccc(-c2ccccc2)cc1 next?
0.082

Can you handle CNC(=O)C(=O)CCCCCCC(=O)Nc1nc(-c2ccc3c(c2)CCCC3)cs1 next?
1.4

Can you handle COC(=O)C(=O)CCCCCCOc1ccc(-c2ccccc2)cc1 next?
0.062

Can you handle CNC(=O)C(=O)CCCCCCC(=O)Nc1nc2ccccc2s1 next?
133

* * *

# tested_target: Histone deacetylase (HDAC1 and HDAC2) (Homo sapiens, UniProt Q13547+Q92769)
# measurement_description: Inhibitory activity against mixture of histone deacetylase 1 (HDAC1) and histone deacetylase 2 (HDAC2) from nuclear extraction of K562 erythroleukemia cells.
Exercise: state measured IC50 for each of the molecules provided.

Record CNC(=O)C(=O)C#CCCCCOc1ccc(-c2ccccc2)cc1 : what is its IC50 with Histone deacetylase (HDAC1 and HDAC2) (Homo sapiens, UniProt Q13547+Q92769)?
> 1000 nM

Can you handle CN(C)CCNC(=O)C(=O)CCCCCCOc1ccc(-c2ccccc2)cc1 next?
> 50 nM

Can you handle NC(=O)C(=O)CCCCCCOc1ccc(-c2ccccc2)cc1 next?
> 50 nM

Hello, the source for this data is ChEMBL document CHEMBL1136247, in case you need it.
